- targetOfAssay: glucagon receptor (GCGR), primary cAMP assay (human, UniProt P47871 26-477)
- Sequence (P47871 26-477): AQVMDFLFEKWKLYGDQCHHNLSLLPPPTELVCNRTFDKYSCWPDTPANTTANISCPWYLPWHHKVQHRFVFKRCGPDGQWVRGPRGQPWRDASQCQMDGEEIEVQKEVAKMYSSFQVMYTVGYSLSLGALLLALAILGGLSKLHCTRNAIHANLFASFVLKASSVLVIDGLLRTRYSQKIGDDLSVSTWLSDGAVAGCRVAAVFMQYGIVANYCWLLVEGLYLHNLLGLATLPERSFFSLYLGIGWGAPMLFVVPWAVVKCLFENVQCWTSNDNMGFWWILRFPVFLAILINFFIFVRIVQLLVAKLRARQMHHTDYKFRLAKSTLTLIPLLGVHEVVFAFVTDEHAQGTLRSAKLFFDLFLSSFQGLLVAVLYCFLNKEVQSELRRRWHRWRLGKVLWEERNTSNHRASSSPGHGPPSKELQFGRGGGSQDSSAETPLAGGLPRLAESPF
- experimentalProtocol: cell-based or functional assay
Starred links: 1 amine or outer side, 2 acyl side, 3 side chain; linkers in the order of their positions; H or OH if unused. Non-standard residues stand in square brackets, D forms with d. Groups on a side chain read outwards from the residue. Primed or numbered codes have the meaning given here. No end group written: not given here. *: point of attachment. γGlu = O=C(O)[C@H](CCC(=O)[*:2])N[*:1]; αMeF = C[C@](N)(Cc1ccccc1)C(=O)O; αMeK = C[C@](N)(CCCCN)C(=O)O; Lauroyl = CCCCCCCCCCCC(=O)*; αMeS = C[C@](N)(CO)C(=O)O; Nle = CCCC[C@H](N)C(=O)O; PEG2′ = not defined here; Aib = CC(C)(N)C(=O)O
measuredProperty: Primary assay EC50 (cAMP), n1 (µM)
# value in µM; strip the unit string

Would you please look over these solved cases?
binder	endpointResult
H[Aib]EGS[αMeF]TSDV[αMeS]SK([PEG2′-PEG2′-γGlu-Lauroyl])LEGEAA[αMeK]E[Nle]IAK([PEG2′-PEG2′-γGlu-Lauroyl])VVEGG-NH2 [SEQ ID NO: 407]	0.0215
H[Aib]EGTFTSDVSK([PEG2′-PEG2′-γGlu-Lauroyl])YLEGEAAEEFIK([PEG2′-PEG2′-γGlu-Lauroyl])WVVEGG-NH2 [SEQ ID NO: 236]	0.0222
H[Aib]EGS[αMeF]TSDV[αMeS]SK([PEG2′-PEG2′-γGlu-Lauroyl])LEGEAA[αMeK]EFIAK([PEG2′-PEG2′-γGlu-Lauroyl])VVEGG-NH2 [SEQ ID NO: 263]	0.0215

Now consider the entry below.
Prompt: Fill in the blank: the reported Primary assay EC50 (cAMP), n1 of H[Aib]EGS[αMeF]TSDVSK([PEG2′-PEG2′-γGlu-Lauroyl])YLEGEAAEEFIK([PEG2′-PEG2′-γGlu-Lauroyl])WVVEGG-NH2 [SEQ ID NO: 240] is ____.
Response: 0.0222
